Source of measurements: ChEMBL document CHEMBL3352741

# IC50 listing for each entry below
- Tgt: Metabotropic glutamate receptor 5 (Rattus norvegicus, UniProt P31424)
- Sequence (P31424 whole entry): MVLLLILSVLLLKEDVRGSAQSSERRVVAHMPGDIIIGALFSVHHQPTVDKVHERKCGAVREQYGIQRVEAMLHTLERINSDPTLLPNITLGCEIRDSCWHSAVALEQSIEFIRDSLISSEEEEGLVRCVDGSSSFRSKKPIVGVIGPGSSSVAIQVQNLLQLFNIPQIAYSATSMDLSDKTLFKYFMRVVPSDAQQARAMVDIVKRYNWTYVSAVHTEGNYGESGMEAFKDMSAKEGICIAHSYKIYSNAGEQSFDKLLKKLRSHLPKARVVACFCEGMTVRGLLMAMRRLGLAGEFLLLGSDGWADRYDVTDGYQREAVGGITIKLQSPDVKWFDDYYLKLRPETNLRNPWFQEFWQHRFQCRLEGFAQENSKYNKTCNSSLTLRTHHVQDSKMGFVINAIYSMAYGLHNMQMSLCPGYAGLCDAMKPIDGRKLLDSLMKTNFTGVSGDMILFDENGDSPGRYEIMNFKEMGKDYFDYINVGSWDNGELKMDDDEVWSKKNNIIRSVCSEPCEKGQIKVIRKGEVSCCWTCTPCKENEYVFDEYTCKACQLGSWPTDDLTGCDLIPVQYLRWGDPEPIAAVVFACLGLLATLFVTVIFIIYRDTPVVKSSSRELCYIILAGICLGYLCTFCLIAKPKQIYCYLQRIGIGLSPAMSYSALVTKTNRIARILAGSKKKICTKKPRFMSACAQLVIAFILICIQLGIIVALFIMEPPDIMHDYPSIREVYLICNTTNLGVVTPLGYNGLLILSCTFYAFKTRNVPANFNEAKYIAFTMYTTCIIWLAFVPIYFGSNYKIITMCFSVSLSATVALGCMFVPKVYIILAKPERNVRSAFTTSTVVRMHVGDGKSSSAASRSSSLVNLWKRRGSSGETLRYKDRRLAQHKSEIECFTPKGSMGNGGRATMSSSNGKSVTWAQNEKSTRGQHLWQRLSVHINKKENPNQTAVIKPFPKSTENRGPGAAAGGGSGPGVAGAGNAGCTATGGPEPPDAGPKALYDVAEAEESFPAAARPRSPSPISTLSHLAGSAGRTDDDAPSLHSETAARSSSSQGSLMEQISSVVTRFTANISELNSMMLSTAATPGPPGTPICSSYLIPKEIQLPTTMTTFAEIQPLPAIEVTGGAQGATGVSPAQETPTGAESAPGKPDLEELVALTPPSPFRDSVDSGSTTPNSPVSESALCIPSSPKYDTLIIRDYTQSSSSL
- Protocol notes: Negative allosteric modulator activity at rat mGlu5 expressed in HEK293A cells assessed as reduction in glutamate-induced calcium mobilization

Item smiles | IC50
O=C(Nc1cncc(Oc2cncc(F)c2)n1)c1cc(F)cc(F)c1 | > 30 µM
O=C(Nc1cncc(Oc2cncc(F)c2)n1)c1cccnn1 | > 30 µM
Cc1cccc(C(=O)Nc2cncc(Oc3cncc(F)c3)n2)n1 | > 30 µM
O=C(Nc1cncc(Oc2cncc(F)c2)n1)c1cccnc1 | > 30 µM
O=C(Nc1cncc(Oc2cncnc2)n1)c1cscn1 | > 10 µM
O=C(Nc1cncc(Oc2cncc(F)c2)n1)c1ccncn1 | > 30 µM
Cc1csc(C(=O)Nc2cncc(Oc3cncc(F)c3)n2)n1 | > 10 µM

* * *

- Tgt: Metabotropic glutamate receptor 5 (Rattus norvegicus)
- Protocol notes: Negative allosteric modulator activity at rat mGlu5 expressed in HEK293A cells assessed as reduction in glutamate-induced calcium mobilization
- Assay type: functional, cell-based, HEK293-A
Property label: IC50

Item smiles | Observed measurement
O=C(Nc1cncc(Oc2cncnc2)n1)c1ccccc1 | > 10 µM
N#Cc1cc(F)cc(C(=O)Nc2cncc(Oc3cncc(F)c3)n2)c1 | > 30 µM
Cc1ccc(C(=O)Nc2cncc(Oc3cncnc3)n2)s1 | > 30 µM
